system: human Notch 1; test: Notch-CBF1 Transactivation Assay (luciferase reporter, transfected HeLa cells), Notch 1; format: cell-based; conditions: read-out: Notch 1 (IC50); HeLa cells transfected with truncated Notch 1 and CBF1 luciferase reporter, 18 hours incubation
ASSAY ENDPOINT: IC50
# include the unit after the value

Some solved cases for reference:
COc1cccc(N2C(=O)[C@@H](NC(=O)[C@H](CCC(F)(F)F)[C@@H](C(N)=O)c3ccccc3)N=C(c3ccccc3)c3ccccc32)n1 [Example 16]    16.4 nM
Cc1cccc2c1NC(=O)[C@@H](NC(=O)[C@H](CCC(F)(F)F)[C@@H](C(N)=O)c1ccccc1)N=C2c1ccc(F)cc1 [Example 27]    15.3 nM
COc1ccc(N2C(=O)[C@@H](NC(=O)[C@H](CCC(F)(F)F)[C@@H](C(N)=O)c3ccccc3)N=C(c3ccccc3)c3ccccc32)nc1 [Example 15]    17.8 nM

Incoming: Note down IC50 recorded for NC(=O)[C@@H](c1cccnc1)[C@@H](CCC(F)(F)F)C(=O)N[C@H]1N=C(c2ccccc2)c2ccccc2NC1=O [Example 10]
Outgoing: 19.3 nM

Incoming: Note down IC50 recorded for Cc1nocc1[C@H](C(N)=O)[C@@H](CCC(F)(F)F)C(=O)N[C@H]1N=C(c2ccccc2)c2ccccc2N(c2ccccn2)C1=O [Example 11]
Outgoing: 12.9 nM

Incoming: Note down IC50 recorded for Cc1nocc1[C@H](C(N)=O)[C@@H](CCC(F)(F)F)C(=O)N[C@H]1N=C(c2ccccc2)c2ccccc2N(c2ccc(Cl)cn2)C1=O [Example 23]
Outgoing: 15.4 nM

Incoming: Note down IC50 recorded for Cc1cccc2c1NC(=O)[C@@H](NC(=O)[C@H](CCC(F)(F)F)[C@@H](C(N)=O)c1conc1C)N=C2c1ccc(F)cc1 [Example 33]
Outgoing: 19 nM

Incoming: Note down IC50 recorded for COc1cc(C#N)cc2c1NC(=O)[C@@H](NC(=O)[C@H](CCC(F)(F)F)[C@@H](C(N)=O)c1ccccc1)N=C2c1ccccc1 [Example 25]
Outgoing: 24.2 nM

Incoming: Note down IC50 recorded for NC(=O)[C@@H](c1ccccc1)[C@@H](CCC(F)(F)F)C(=O)N[C@H]1N=C(c2ccccc2)c2ccccc2N(c2ccccn2)C1=O [Example 12]
Outgoing: 13.6 nM

Incoming: Note down IC50 recorded for NC(=O)[C@@H](c1ccccc1)[C@@H](CCC(F)(F)F)C(=O)N[C@H]1N=C(c2ccccc2)c2ccccc2N(c2ccc(Cl)cn2)C1=O [Example 22]
Outgoing: 16 nM

* * *

# half-life at 0.5 μM per entry
test: Human metabolic stability half-life assay (liver microsomes); format: in vitro ADME; settings: pH 7.4, human liver microsomes, CYP-mediated (NADPH-dependent), 0.5 μM compound, 45-minute time course, read-out: HLM (t1/2, min)

Some solved cases for reference:
COc1ccc(N2C(=O)[C@@H](NC(=O)[C@H](CCC(F)(F)F)[C@@H](C(N)=O)c3conc3C)N=C(c3ccccc3)c3ccccc32)nc1    ≥ 30 min
Cc1cccc2c1NC(=O)[C@@H](NC(=O)[C@H](CCC(F)(F)F)[C@@H](C(N)=O)c1ccccc1)N=C2c1ccccc1    ≥ 30 min
Cc1cccc2c1NC(=O)[C@@H](NC(=O)[C@H](CCC(F)(F)F)[C@@H](C(N)=O)c1ccccc1)N=C2c1cccc(Cl)c1    ≥ 30 min
NC(=O)[C@@H](c1ccccc1)[C@@H](CCC(F)(F)F)C(=O)N[C@H]1N=C(c2ccccc2)c2cccc(OC3CC3)c2NC1=O    ≥ 30 min
Cc1cccc2c1NC(=O)[C@@H](NC(=O)[C@H](CCC(F)(F)F)[C@@H](C(N)=O)c1conc1C)N=C2c1cccc(Cl)c1    ≥ 30 min

Incoming: Note down half-life at 0.5 μM recorded for `Cc1cccc2c1NC(=O)[C@@H](NC(=O)[C@H](CCC(F)(F)F)[C@@H](C(N)=O)c1ccccc1)N=C2c1cccc(C(F)(F)F)c1`
Outgoing: ≥ 30 min

Incoming: Note down half-life at 0.5 μM recorded for `Cc1cccc2c1NC(=O)[C@@H](NC(=O)[C@H](CCC(F)(F)F)[C@@H](C(N)=O)c1ccccc1)N=C2c1cccc(C(F)F)c1`
Outgoing: ≥ 30 min

Incoming: Note down half-life at 0.5 μM recorded for C=CC[C@H](C(N)=O)[C@@H](CC(C)C)C(=O)N[C@H]1N=C(c2ccccc2)c2ccccc2N(CCC)C1=O [Comparative Compound 40, reference compound]
Outgoing: ≤ 8 min

Incoming: Note down half-life at 0.5 μM recorded for `Cc1nocc1[C@H](C(N)=O)[C@@H](CCC(F)(F)F)C(=O)N[C@H]1N=C(c2ccccc2)c2cccc(Cl)c2NC1=O`
Outgoing: ≥ 30 min

Incoming: Note down half-life at 0.5 μM recorded for C=CC[C@H](C(N)=O)[C@@H](CC(C)C)C(=O)N[C@H]1N=C(c2ccccc2)c2cc(Cl)ccc2N(C)C1=O [Comparative Compound 38, reference compound]
Outgoing: ≤ 8 min

Incoming: Note down half-life at 0.5 μM recorded for CCC[C@H](C(N)=O)[C@@H](CC(C)C)C(=O)N[C@H]1N=C(c2ccccc2)c2ccccc2N(C)C1=O [Comparative Compound 37, reference compound]
Outgoing: ≤ 8 min

Incoming: Note down half-life at 0.5 μM recorded for `Cc1nocc1[C@H](C(N)=O)[C@@H](CCC(F)(F)F)C(=O)N[C@H]1N=C(c2ccccc2)c2ccccc2NC1=O`
Outgoing: ≥ 30 min

Incoming: Note down half-life at 0.5 μM recorded for `Cc1cccc2c1NC(=O)[C@@H](NC(=O)[C@H](CCC(F)(F)F)[C@@H](C(N)=O)c1ccccc1)N=C2c1ccc(F)cc1`
Outgoing: ≥ 30 min

Incoming: Note down half-life at 0.5 μM recorded for `Cc1nocc1[C@H](C(N)=O)[C@@H](CCC(F)(F)F)C(=O)N[C@H]1N=C(c2ccccc2)c2ccccc2N(c2ccccn2)C1=O`
Outgoing: ≥ 30 min
